- TARGET OF ASSAY: various mutants of kinase EGFR (BaF3 cell lines stably transfected with kinase) (Homo sapiens, UniProt P00533, T790M/C797S, form not given)
- Construct: other: BaF3 cells stably transfected with EGFR Δ19Del/T790M/C797S; MTS, 48; other: BaF3 cell line stably transfected with EGFR Δ19Del/T790M/C7
- Sequence (P00533 with tags, fused parts or gaps DEL746-750/T790M/C797S, form open): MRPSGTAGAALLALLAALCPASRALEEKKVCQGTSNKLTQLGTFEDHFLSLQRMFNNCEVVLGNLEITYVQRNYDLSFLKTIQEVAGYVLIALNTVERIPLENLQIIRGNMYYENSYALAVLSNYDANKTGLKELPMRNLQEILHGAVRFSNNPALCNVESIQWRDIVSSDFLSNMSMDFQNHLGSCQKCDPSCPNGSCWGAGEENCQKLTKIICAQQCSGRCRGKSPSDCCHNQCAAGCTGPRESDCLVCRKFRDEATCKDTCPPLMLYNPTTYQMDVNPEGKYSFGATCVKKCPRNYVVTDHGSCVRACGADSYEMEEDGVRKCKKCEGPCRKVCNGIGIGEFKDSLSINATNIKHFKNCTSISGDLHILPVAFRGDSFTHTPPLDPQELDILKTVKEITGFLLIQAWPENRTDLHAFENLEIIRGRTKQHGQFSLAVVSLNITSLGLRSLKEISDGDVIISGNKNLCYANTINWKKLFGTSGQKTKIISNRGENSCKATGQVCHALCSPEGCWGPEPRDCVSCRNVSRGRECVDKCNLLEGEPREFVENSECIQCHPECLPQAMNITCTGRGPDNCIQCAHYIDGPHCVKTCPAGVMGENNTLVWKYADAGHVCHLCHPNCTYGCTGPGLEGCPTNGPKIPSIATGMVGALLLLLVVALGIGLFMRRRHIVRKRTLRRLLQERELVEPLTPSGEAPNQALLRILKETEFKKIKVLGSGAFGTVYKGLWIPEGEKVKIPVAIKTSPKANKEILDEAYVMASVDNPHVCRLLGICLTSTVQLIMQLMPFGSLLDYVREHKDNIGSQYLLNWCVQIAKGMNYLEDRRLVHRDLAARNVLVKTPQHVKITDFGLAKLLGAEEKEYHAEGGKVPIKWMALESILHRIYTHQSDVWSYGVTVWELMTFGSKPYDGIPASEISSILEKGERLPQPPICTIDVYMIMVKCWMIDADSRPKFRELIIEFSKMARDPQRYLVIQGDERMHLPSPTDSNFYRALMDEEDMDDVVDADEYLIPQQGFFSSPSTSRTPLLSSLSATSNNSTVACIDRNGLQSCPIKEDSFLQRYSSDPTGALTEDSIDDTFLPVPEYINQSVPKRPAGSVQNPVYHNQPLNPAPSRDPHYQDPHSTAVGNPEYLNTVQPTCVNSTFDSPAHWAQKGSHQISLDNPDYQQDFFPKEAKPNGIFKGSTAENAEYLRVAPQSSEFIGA
- EXPERIMENT NOTES: Growth inhibitory activity of compounds on BaF3 cell lines stably transfected with kinase (MTS, 48 h)
- Type: cell-based
- CONDITION DESCRIPTION: BaF3 cell line stably transfected with EGFR Δ19Del/T790M/C797S, read-out: Δ19Del/T790M/ C797S growth inhibitory activity IC50
pIC50: −log10 of the molar value.
Recorded measurements of pIC50, one per entry
RECORDED METRIC: pIC50

- MOLECULE: "COc1cc(N2CCC(N3CCN(C)CC3)CC2)c(C)cc1Nc1ncc(OC)c(Nc2ccc3nccnc3c2N(C)S(C)(=O)=O)n1 [Compound I-332]"
  RECORDED METRIC: "pIC50"
  MEASURED: "≥ 7.30"
- MOLECULE: "CCc1cc(Nc2ncc(CC)c(Nc3ccc4nccnc4c3N(C)S(C)(=O)=O)n2)c(OC(F)(F)F)cc1N1CCC(N2CCN(C)CC2)CC1 [Compound I-321]"
  RECORDED METRIC: "pIC50"
  MEASURED: "≥ 7.30"
- MOLECULE: "COc1cc(N2CCC(N3CCN(C)CC3)CC2)c(C)cc1Nc1ncc(Br)c(Nc2ccc3nccnc3c2NS(=O)(=O)C(C)C)n1 [Compound I-414]"
  RECORDED METRIC: "pIC50"
  MEASURED: "≥ 7.30"
- MOLECULE: "COc1cc(N2CCC(N3CCN(C)CC3)CC2)ccc1Nc1nc(Nc2ccc3nccnc3c2N(C)S(C)(=O)=O)c2cc[nH]c2n1 [II-2-22]"
  RECORDED METRIC: "pIC50"
  MEASURED: "≥ 7.30"
- MOLECULE: "CCc1cc(Nc2nc(Nc3ccc4nccnc4c3N(C)S(C)(=O)=O)c3ccsc3n2)c(OC(F)(F)F)cc1N1CCC(N2CCN(C)CC2)CC1 [II-2-4]"
  RECORDED METRIC: "pIC50"
  MEASURED: "5.60 to 6.30"
- MOLECULE: "CCc1cc(Nc2ncc(CC)c(Nc3ccc4nccnc4c3N(C)S(C)(=O)=O)n2)c(OC)cc1N1CCC(N(C)C)CC1 [Compound I-323]"
  RECORDED METRIC: "pIC50"
  MEASURED: "≥ 7.30"

###

- TARGET OF ASSAY: various mutants of kinase EGFR (BaF3 cell lines stably transfected with kinase) (Homo sapiens, UniProt P00533)
- Construct: other: BaF3 cells stably transfected with EGFR Δ19Del; MTS, 48 h; other: BaF3 cell line stably transfected with EGFR Δ19Del
- Sequence (P00533 with tags, fused parts or gaps DEL746-750): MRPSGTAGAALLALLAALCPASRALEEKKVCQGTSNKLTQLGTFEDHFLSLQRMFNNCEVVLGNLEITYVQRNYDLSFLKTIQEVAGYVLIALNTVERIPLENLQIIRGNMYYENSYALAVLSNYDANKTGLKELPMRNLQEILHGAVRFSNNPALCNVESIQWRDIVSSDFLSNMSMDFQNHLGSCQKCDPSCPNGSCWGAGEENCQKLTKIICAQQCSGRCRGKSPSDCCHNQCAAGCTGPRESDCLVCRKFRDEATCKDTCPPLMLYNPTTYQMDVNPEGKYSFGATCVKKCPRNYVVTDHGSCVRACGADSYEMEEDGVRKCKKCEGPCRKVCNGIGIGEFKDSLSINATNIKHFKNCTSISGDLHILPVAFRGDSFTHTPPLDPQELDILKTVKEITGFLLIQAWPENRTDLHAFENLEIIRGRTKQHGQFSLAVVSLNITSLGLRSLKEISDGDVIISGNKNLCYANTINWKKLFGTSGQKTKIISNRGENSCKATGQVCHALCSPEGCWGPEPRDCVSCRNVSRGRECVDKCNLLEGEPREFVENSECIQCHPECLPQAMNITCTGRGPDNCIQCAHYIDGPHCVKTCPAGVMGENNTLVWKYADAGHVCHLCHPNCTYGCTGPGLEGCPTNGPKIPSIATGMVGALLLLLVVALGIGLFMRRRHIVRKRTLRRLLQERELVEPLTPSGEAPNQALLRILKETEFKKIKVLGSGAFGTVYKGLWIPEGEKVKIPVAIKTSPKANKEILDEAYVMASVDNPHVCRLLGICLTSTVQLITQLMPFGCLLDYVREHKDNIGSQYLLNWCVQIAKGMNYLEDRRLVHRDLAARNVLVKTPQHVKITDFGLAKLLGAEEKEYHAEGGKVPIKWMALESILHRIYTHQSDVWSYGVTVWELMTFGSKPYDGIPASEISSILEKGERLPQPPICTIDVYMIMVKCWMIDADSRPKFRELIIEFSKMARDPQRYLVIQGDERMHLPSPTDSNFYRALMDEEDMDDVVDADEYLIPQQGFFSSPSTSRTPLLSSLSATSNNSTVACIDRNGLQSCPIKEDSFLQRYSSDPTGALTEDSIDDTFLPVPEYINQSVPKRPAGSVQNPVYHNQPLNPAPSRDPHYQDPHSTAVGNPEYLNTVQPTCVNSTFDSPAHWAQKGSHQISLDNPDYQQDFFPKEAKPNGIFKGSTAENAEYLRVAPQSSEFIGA
- EXPERIMENT NOTES: Growth inhibitory activity of compounds on BaF3 cell lines stably transfected with kinase (MTS, 48 h)
- Assay type: cell-based
- CONDITION DESCRIPTION: BaF3 cells stably transfected with EGFR Δ19Del, read-out: IC50, growth inhibition, Δ19Del
RECORDED METRIC: IC50

- COMPOUND: "CCN(c1c(Nc2nc(Nc3cc(C)c(N4CCC(N(C)C)C4)cc3OC)ncc2Cl)ccc2nccnc12)S(C)(=O)=O (stereo not shown)"
  MEASURED: "≤ 0.05 µM"
- COMPOUND: "CCc1cc(Nc2ncc(Br)c(Nc3ccc4nccnc4c3N(C)S(=O)(=O)C(C)C)n2)c(OC)cc1N1CCC(N(C)C)CC1"
  MEASURED: "0.05 to 0.5 µM"
- COMPOUND: "CCc1cc(Nc2ncc(C3CC3)c(Nc3ccc4nccnc4c3N(C)S(C)(=O)=O)n2)c(OC)nc1N1CCC(N2CCN(C)CC2)CC1"
  MEASURED: "0.05 to 0.5 µM"
- COMPOUND: "COc1cc(N2CCC(N3CCN(C)CC3)CC2)c(Cc2ccccc2)cc1Nc1ncc(Br)c(Nc2ccc3nccnc3c2N(C)S(C)(=O)=O)n1"
  MEASURED: "0.5 to 2.5 µM"
- COMPOUND: "COc1cc(N2CCC(N3CCN(C)CC3)CC2)ccc1Nc1ncc(Cl)c(Nc2ccc3nccnc3c2N(C)S(C)(=O)=O)n1"
  MEASURED: "0.05 to 0.5 µM"
- COMPOUND: "CCc1cc(Nc2ncc(Cl)c(Nc3ccc4nccnc4c3N(C)S(=O)(=O)C(C)C)n2)c(OC)cc1N1CCC(N(C)C)CC1"
  MEASURED: "≤ 0.05 µM"
- COMPOUND: "COc1cc(N2CCC(N3CCN(C)CC3)CC2)ccc1Nc1ncc(Cl)c(Nc2ccc3nccnc3c2N(C)S(=O)(=O)C2CC2)n1"
  MEASURED: "0.05 to 0.5 µM"
- COMPOUND: "CN(c1c(Nc2nc(Nc3ccn(C)n3)ncc2Br)ccc2nccnc12)S(C)(=O)=O"
  MEASURED: "0.05 to 0.5 µM"
- COMPOUND: "CCc1cc(Nc2ncc(Cl)c(Nc3ccc4nccnc4c3N(C)S(=O)(=O)C(F)(F)F)n2)c(OC(F)(F)F)cc1N1CCC(N2CCN(C)CC2)CC1"
  MEASURED: "0.5 to 2.5 µM"
- COMPOUND: "COc1cc(N2CCC(N3CCN(C)CC3)CC2)c(CC2CC2)cc1Nc1ncc(Cl)c(Nc2ccc3nccnc3c2N(C)S(=O)(=O)C(F)(F)F)n1"
  MEASURED: "0.5 to 2.5 µM"
- COMPOUND: "CCc1cc(Nc2ncc(F)c(Nc3ccc4nccnc4c3N(C)S(C)(=O)=O)n2)c(OC)cc1N1CCC(N(C)C)C1 (stereo not shown)"
  MEASURED: "0.05 to 0.5 µM"
- COMPOUND: "CCc1cc(Nc2ncc(Cl)c(Nc3ccc4nccnc4c3N(C)S(=O)(=O)C(C)C)n2)c(OC)cc1N1CCC(N(C)C)C1 (stereo not shown)"
  MEASURED: "0.05 to 0.5 µM"
- COMPOUND: "COc1cc(N2CCC(N(C)C)CC2)c(C)cc1Nc1ncc(Br)c(Nc2ccc3nccnc3c2N(C)S(C)(=O)=O)n1"
  MEASURED: "≤ 0.05 µM"
- COMPOUND: "CCc1cc(Nc2ncc(Br)c(Nc3ccc4nccnc4c3N(CC)S(C)(=O)=O)n2)c(OC)cc1N1CCC(N2CCN(C)CC2)CC1"
  MEASURED: "≤ 0.05 µM"
- COMPOUND: "CN(c1c(Nc2nc(Nc3ccc(S(=O)(=O)NC4CC4)cc3)ncc2Br)ccc2nccnc12)S(C)(=O)=O"
  MEASURED: "0.05 to 0.5 µM"
- COMPOUND: "COc1ccc(N2CCC(O)CC2)cc1Nc1ncc(Br)c(Nc2ccc3nccnc3c2N(C)S(C)(=O)=O)n1"
  MEASURED: "0.05 to 0.5 µM"
- COMPOUND: "COc1cc(N2CCC(N3CCN(C)CC3)CC2)c(CC2CC2)cc1Nc1ncc(F)c(Nc2ccc3nccnc3c2N(C)S(C)(=O)=O)n1"
  MEASURED: "≤ 0.05 µM"
- COMPOUND: "CCS(=O)(=O)N(C)c1c(Nc2nc(Nc3ccc(N4CCC(N5CCN(C)CC5)CC4)cc3OC)ncc2Cl)ccc2nccnc12"
  MEASURED: "0.05 to 0.5 µM"
- COMPOUND: "COc1cc(N2CCN(C)CC2)c(C)cc1Nc1ncc(F)c(Nc2ccc3nccnc3c2N(C)S(C)(=O)=O)n1"
  MEASURED: "0.05 to 0.5 µM"
- COMPOUND: "CCc1cc(Nc2ncc(Br)c(Nc3ccc4nccnc4c3N(C)S(=O)(=O)CC)n2)c(OC)cc1N1CCC(N(C)C)CC1"
  MEASURED: "≤ 0.05 µM"
- COMPOUND: "CCc1cc(Nc2ncc(Cl)c(Nc3ccc4nccnc4c3N(C)S(=O)(=O)C(C)C)n2)c(OC)nc1N1CCC(N2CCN(C)CC2)CC1"
  MEASURED: "0.05 to 0.5 µM"
- COMPOUND: "COc1cc(N2CCC(N3CCN(C)CC3)CC2)ccc1Nc1ncc(Cl)c(Nc2ccc3nccnc3c2N(C)S(=O)(=O)C(F)(F)F)n1"
  MEASURED: "0.5 to 2.5 µM"
- COMPOUND: "CCc1cc(Nc2ncc(Cl)c(Nc3ccc4nccnc4c3N(C3CC3)S(C)(=O)=O)n2)c(OC)cc1N1CCC(N2CCN(C)CC2)CC1"
  MEASURED: "≤ 0.05 µM"
- COMPOUND: "CCc1cc(Nc2ncc([N+](=O)[O-])c(Nc3ccc4nccnc4c3N(C)S(C)(=O)=O)n2)c(OC)cc1N1CCC(N2CCN(C)CC2)CC1"
  MEASURED: "≤ 0.05 µM"
- COMPOUND: "COc1cc(N2CCN(C)CC2)c(C)cc1Nc1ncc(C(F)(F)F)c(Nc2ccc3nccnc3c2N(C)S(C)(=O)=O)n1"
  MEASURED: "0.05 to 0.5 µM"
